Source: patent US6251894A

minimal effective dose listing for selected molecules.
test system: Substance P Induced Plasma Extravasation; test: Antagonism of substance P induced plasma extravasation in guinea-pigs; format: in vivo, guinea-pig; conditions: Cavia porcellus, sc, 0.5 h; s.c., 1 hour prior to substance P; urinary bladder; read-out: lowest active dose (LAD), urinary bladder
Numeric only. Scale: mg/kg

Solved entries:
# MOLECULE, TARGET OF ASSAY, REPORTED RESULT
measured = [
    ("O=C(c1cc(C(F)(F)F)cc(C(F)(F)F)c1)N1CC[C@H](N2CCC(=C3c4ccccc4OCn4ccnc43)CC2)C[C@@H]1Cc1ccccc1 (relative stereo)", "Substance P Induced Plasma Extravasation", 10),
    ("Cc1cc(C)cc(C(=O)N2CC[C@H](N3CCC(=C4c5sccc5CCn5ccnc54)CC3)C[C@H]2Cc2ccccc2)c1 (relative stereo)", "Substance P Induced Plasma Extravasation", 10),
    ("Cc1cc(C)cc(C(=O)N2CC[C@@H](N3CCC(C4c5ccccc5CCn5ccnc54)CC3)C[C@@H]2Cc2ccccc2)c1 (stereo partly shown)", "Substance P Induced Plasma Extravasation", 2.5),
    ("Cc1cnc2n1CCc1ccccc1C2=C1CCN([C@H]2CCN(C(=O)c3cc(C(F)(F)F)cc(C(F)(F)F)c3)[C@@H](Cc3ccccc3)C2)CC1 (relative stereo)", "Substance P Induced Plasma Extravasation", 10),
    ("Cc1cc(C)cc(C(=O)N2CC[C@@H](N3CCC4(CC3)c3ccccc3CCn3ccnc34)C[C@@H]2Cc2ccccc2)c1 (relative stereo)", "Substance P Induced Plasma Extravasation", 10),
    ("Cc1cc(C)cc(C(=O)N2CC[C@@H](N3CCC(=C4c5ccsc5C(=O)Cn5ccnc54)CC3)C[C@@H]2Cc2ccccc2)c1 (relative stereo)", "Substance P Induced Plasma Extravasation", 2.5),
]

Short answer for O=C(c1cc(C(F)(F)F)cc(C(F)(F)F)c1)N1CC[C@@H](N2CCC(=C3c4ccccc4OCn4ccnc43)CC2)C[C@@H]1Cc1ccccc1 (relative stereo) : minimal effective dose was 10

Short answer for O=C(c1cc(C(F)(F)F)cc(C(F)(F)F)c1)N1CC[C@@H](N2CCC3(CC2)c2ccccc2CCn2ccnc23)C[C@@H]1Cc1ccccc1 (relative stereo) : minimal effective dose was 10

Short answer for Cc1cc(C)cc(C(=O)N2CC[C@H](N3CCC(=C4c5ccccc5CCn5ccnc54)CC3)C[C@@H]2Cc2ccccc2)c1 (racemic) : minimal effective dose was 10

Short answer for O=C(c1cc(C(F)(F)F)cc(C(F)(F)F)c1)N1CC[C@H](N2CCC(=C3c4ccccc4CCn4c(CO)cnc43)CC2)C[C@@H]1Cc1ccccc1 (racemic) : minimal effective dose was 10

Short answer for Cc1cc(C)cc(C(=O)N2CCC(N3CCC(C4c5ccccc5Cn5ccnc54)CC3)CC2Cc2ccccc2)c1 (stereo not shown) : minimal effective dose was 10

Short answer for Cc1cc(C)cc(C(=O)N2CC[C@@H](N3CCC(=C4c5ccn(C)c5CCn5ccnc54)CC3)C[C@@H]2Cc2ccccc2)c1 (relative stereo) : minimal effective dose was 0.63

Short answer for O=Cc1cnc2n1CCc1ccccc1C2=C1CCN([C@@H]2CCN(C(=O)c3cc(C(F)(F)F)cc(C(F)(F)F)c3)[C@@H](Cc3ccccc3)C2)CC1 (relative stereo) : minimal effective dose was 10
